# IC50 values compiled below
- assay target: bovine cardiac myosin (Bos taurus)
- method notes: Myosin inhibition assay (PK/LDH-coupled ATPase, bovine cardiac myofibrils)
- test settings: calcium concentration giving 50% activation, pH 6.8, read-out: bcMF pCa_6 IC50

### Prompt Supply IC50 value. Item: COc1cccc([C@@H]2CCc3c([nH]c(=O)n(C(C)C)c3=O)N2)c1 [Compound 93]
### Response > 15 µM

### Prompt Supply IC50 value. Item: O=c1[nH]c2c(c(=O)n1-c1cc(F)cc(F)c1)CC[C@H](C1CCC(O)CC1)N2 (stereo partly shown) [Compound 52]
### Response 1 to 15 µM

### Prompt Supply IC50 value. Item: CCn1c(=O)[nH]c2c(c1=O)C[C@](C)(c1ccccc1)N2 [Compound 144]
### Response > 15 µM

### Prompt Supply IC50 value. Item: CC(C)n1c(=O)[nH]c2c(c1=O)CC(F)(F)[C@H](c1cccc(Cl)c1)N2 [Compound 129]
### Response < 1 µM

* * *

- assay target: bovine cardiac myosin (Bos taurus, UniProt Q9BE39)
- Sequence (Q9BE39 whole entry): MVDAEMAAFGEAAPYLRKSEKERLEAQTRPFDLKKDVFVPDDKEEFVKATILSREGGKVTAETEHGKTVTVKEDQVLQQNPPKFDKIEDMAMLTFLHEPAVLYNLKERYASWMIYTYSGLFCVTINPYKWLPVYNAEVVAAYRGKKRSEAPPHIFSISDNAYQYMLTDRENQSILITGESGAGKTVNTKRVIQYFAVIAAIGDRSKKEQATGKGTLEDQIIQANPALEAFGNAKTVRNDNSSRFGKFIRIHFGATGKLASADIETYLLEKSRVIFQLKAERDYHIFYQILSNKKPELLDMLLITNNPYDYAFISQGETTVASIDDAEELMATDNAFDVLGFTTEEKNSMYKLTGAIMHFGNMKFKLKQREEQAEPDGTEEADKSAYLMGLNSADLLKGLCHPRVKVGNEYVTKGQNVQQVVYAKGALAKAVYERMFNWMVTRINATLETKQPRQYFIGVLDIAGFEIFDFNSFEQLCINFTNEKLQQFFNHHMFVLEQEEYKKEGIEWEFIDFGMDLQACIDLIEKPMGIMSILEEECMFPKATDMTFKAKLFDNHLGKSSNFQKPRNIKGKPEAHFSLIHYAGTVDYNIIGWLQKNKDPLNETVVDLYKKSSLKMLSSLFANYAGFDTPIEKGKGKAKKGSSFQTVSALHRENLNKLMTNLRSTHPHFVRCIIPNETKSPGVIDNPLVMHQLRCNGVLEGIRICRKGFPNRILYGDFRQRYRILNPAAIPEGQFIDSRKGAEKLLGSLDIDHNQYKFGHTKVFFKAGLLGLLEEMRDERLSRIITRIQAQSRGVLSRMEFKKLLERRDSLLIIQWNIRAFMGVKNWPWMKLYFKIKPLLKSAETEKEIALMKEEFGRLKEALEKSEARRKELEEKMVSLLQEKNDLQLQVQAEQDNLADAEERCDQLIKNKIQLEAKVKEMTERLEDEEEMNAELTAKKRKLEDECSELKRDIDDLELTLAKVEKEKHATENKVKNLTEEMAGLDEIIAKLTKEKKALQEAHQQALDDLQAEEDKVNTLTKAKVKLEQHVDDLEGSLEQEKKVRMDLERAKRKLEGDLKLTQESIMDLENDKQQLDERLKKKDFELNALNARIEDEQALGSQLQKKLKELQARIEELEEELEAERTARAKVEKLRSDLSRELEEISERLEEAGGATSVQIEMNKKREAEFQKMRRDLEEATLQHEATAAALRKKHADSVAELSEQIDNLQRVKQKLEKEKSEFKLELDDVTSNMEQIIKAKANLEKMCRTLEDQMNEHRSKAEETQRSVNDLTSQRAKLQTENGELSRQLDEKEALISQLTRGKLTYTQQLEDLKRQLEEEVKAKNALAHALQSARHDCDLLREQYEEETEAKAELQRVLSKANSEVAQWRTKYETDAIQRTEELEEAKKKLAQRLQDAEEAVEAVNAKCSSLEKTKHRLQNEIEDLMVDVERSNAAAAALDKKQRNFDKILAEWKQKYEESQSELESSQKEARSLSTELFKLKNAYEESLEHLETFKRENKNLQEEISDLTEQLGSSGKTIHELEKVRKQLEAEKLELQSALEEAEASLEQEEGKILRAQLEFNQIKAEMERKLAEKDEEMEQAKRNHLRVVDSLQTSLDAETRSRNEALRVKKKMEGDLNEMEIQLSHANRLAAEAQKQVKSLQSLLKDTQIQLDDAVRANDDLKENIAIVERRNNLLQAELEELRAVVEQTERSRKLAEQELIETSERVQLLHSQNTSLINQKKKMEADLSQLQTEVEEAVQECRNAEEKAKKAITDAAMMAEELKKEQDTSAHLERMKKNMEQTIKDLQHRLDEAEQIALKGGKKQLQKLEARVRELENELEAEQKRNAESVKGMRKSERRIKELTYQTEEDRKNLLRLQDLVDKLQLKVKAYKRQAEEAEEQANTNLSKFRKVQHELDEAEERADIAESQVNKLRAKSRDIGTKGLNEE
- Sequence (P85100 whole entry partner): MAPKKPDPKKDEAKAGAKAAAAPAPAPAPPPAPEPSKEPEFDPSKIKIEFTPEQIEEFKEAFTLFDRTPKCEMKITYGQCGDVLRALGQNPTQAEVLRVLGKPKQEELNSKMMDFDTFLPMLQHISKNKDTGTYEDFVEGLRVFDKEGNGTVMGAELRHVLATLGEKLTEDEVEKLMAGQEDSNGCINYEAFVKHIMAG
- Sequence (Q3SZE5 whole entry partner): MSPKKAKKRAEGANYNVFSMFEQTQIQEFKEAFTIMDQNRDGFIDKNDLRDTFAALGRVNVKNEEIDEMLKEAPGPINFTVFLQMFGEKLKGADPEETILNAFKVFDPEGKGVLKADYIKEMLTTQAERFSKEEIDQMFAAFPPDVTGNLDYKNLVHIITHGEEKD
- method notes: Myosin inhibition assay (PK/LDH-coupled ATPase, bovine cardiac myofibrils)
- test settings: calcium concentration giving 50% activation, pH 6.8, read-out: bcMF pCa_6 IC50
- Method: Small molecule agents were assessed for their ability to inhibit the enzymatic activity of bovine cardiac myosin using a biochemical assay that couples the release of ADP (adenosine diphosphate) from cardiac myosin to an enzymatic coupling system consisting of pyruvate kinase and lactate dehydrogenase (PK/LDH) and monitoring the absorbance decrease of NADH (at 340 nm) as a function of time. PK converts ADP to ATP (adenosine triphosphate) by converting PEP (phosphoenolpyruvate) to pyruvate. […]
pIC50: −log10 of the molar value.
# pIC50 values compiled below

Some entries whose results are on file:
{"structure as smiles": "CC1(n2c(=O)[nH]c3c(c2=O)CC[C@H](c2ccccc2F)N3)CC1", "pIC50": "4.82 to 6.00"}
{"structure as smiles": "C[C@]1(c2cc(F)ccc2F)CCc2c([nH]c(=O)n(C3CC3)c2=O)N1", "pIC50": "> 6.00"}
{"structure as smiles": "Cc1ccccc1[C@H]1CCc2c([nH]c(=O)n(C(C)C)c2=O)N1", "pIC50": "4.82 to 6.00"}

### Prompt Supply pIC50 value. Item: CC(C)n1c(=O)[nH]c2c(c1=O)CC[C@H](c1cc(F)ccc1F)N2
### Response 4.82 to 6.00

### Prompt Supply pIC50 value. Item: CCn1c(=O)[nH]c2c(c1=O)CC[C@H](c1ccccc1)N2
### Response < 4.82

### Prompt Supply pIC50 value. Item: CC[C@@H](C)n1c(=O)[nH]c2c(c1=O)CC[C@H](C1CCC(F)(F)CC1)N2
### Response > 6.00

### Prompt Supply pIC50 value. Item: CC(C)n1c(=O)[nH]c2c(c1=O)C[C@H](C)[C@H](c1ccccc1)N2
### Response < 4.82

### Prompt Supply pIC50 value. Item: COC(=O)N1CCC(n2c(=O)[nH]c3c(c2=O)CC[C@H](c2ccccc2)N3)CC1
### Response 4.82 to 6.00

* * *

# pIC50 values compiled below
- assay target: bovine cardiac myosin (Bos taurus, UniProt Q9BE39)
- method notes: Myosin inhibition assay (PK/LDH-coupled ATPase, bovine cardiac myofibrils)
- Type: biochemical
- test settings: calcium concentration giving 50% activation, pH 6.8, read-out: bcMF pCa_6 IC50
pIC50: −log10 of the molar value.

Some entries whose results are on file:
{"structure as smiles": "CC1(n2c(=O)[nH]c3c(c2=O)CC[C@H](c2ccc(F)c(F)c2)N3)CC1", "pIC50": "4.82 to 6.00"}
{"structure as smiles": "Cc1cccc([C@@H]2CCc3c([nH]c(=O)n(C(C)C)c3=O)N2)c1", "pIC50": "< 4.82"}
{"structure as smiles": "C[C@]1(c2cccc(F)c2)CCc2c([nH]c(=O)n(CC(F)(F)F)c2=O)N1", "pIC50": "> 6.00"}
{"structure as smiles": "CC[C@H](C)n1c(=O)[nH]c2c(c1=O)CC[C@H](C1CCC(F)(F)CC1)N2", "pIC50": "4.82 to 6.00"}
{"structure as smiles": "CC(C)n1c(=O)[nH]c2c(c1=O)CC[C@H](c1ccc(F)cc1)N2", "pIC50": "4.82 to 6.00"}
{"structure as smiles": "CC(C)n1c(=O)[nH]c2c(c1=O)CC[C@H](Cc1ccccc1)N2", "pIC50": "> 6.00"}

### Prompt Supply pIC50 value. Item: CCn1c(=O)[nH]c2c(c1=O)CC[C@H](c1c(F)cccc1F)N2
### Response < 4.82

### Prompt Supply pIC50 value. Item: O=c1[nH]c2c(c(=O)n1C1CC1)CC[C@H](C1CCC(F)(F)CC1)N2
### Response 4.82 to 6.00

### Prompt Supply pIC50 value. Item: O=c1[nH]c2c(c(=O)n1CC(F)F)CC[C@H](c1ccc(F)c(F)c1)N2
### Response 4.82 to 6.00
